- System: Escherichia coli TOP10;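 further: peptides expressed intracellularly from a pBAD plasmid library in pooled LB shake-flask culture, induced with 0.3% L-arabinose, DNA abundance read by NGS, three biological replicates, DESeq2 with apeglm shrinkage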
- run_description: shrunken log2 fold change of peptide-encoding DNA abundance (4.5 h post-induction vs induction); higher = less antimicrobial activity (less host growth inhibition)
- condition_summary: time post-induction: 4.5 h; library: site-saturation at positions 5, 18, 19, 20
Please use the following shrunken log2 fold change ranges when assigning a class: 1: < -0.2; 2: ≥ -0.2 and < 0.03; 3: ≥ 0.03

[
  {
    "seq_string": "RRIRGRPPRLPRPRPRPWPTPRP",
    "target": "Escherichia coli TOP10",
    "assigned_class": 3
  },
  {
    "seq_string": "RRIRSRPPRLPRPRPRPSYVPRP",
    "target": "Escherichia coli TOP10",
    "assigned_class": 1
  },
  {
    "seq_string": "RRIRYRPPRLPRPRPRPQCIPRP",
    "target": "Escherichia coli TOP10",
    "assigned_class": 2
  },
  {
    "seq_string": "RRIRYRPPRLPRPRPRPKVSPRP",
    "target": "Escherichia coli TOP10",
    "assigned_class": 2
  },
  {
    "seq_string": "RRIRIRPPRLPRPRPRPSCYPRP",
    "target": "Escherichia coli TOP10",
    "assigned_class": 1
  },
  {
    "seq_string": "RRIRERPPRLPRPRPRPFEYPRP",
    "target": "Escherichia coli TOP10",
    "assigned_class": 2
  },
  {
    "seq_string": "RRIRMRPPRLPRPRPRPVNKPRP",
    "target": "Escherichia coli TOP10",
    "assigned_class": 1
  },
  {
    "seq_string": "RRIRRRPPRLPRPRPRPYVWPRP",
    "target": "Escherichia coli TOP10",
    "assigned_class": 1
  },
  {
    "seq_string": "RRIRWRPPRLPRPRPRPGDHPRP",
    "target": "Escherichia coli TOP10",
    "assigned_class": 2
  },
  {
    "seq_string": "RRIRQRPPRLPRPRPRPKTEPRP",
    "target": "Escherichia coli TOP10",
    "assigned_class": 3
  },
  {
    "seq_string": "RRIRLRPPRLPRPRPRPGYEPRP",
    "target": "Escherichia coli TOP10",
    "assigned_class": 2
  },
  {
    "seq_string": "RRIRPRPPRLPRPRPRPDDEPRP",
    "target": "Escherichia coli TOP10",
    "assigned_class": 3
  },
  {
    "seq_string": "RRIRLRPPRLPRPRPRPCLSPRP",
    "target": "Escherichia coli TOP10",
    "assigned_class": 2
  },
  {
    "seq_string": "RRIRTRPPRLPRPRPRPKPVPRP",
    "target": "Escherichia coli TOP10",
    "assigned_class": 3
  },
  {
    "seq_string": "RRIRWRPPRLPRPRPRPAVDPRP",
    "target": "Escherichia coli TOP10",
    "assigned_class": 3
  },
  {
    "seq_string": "RRIRDRPPRLPRPRPRPFLWPRP",
    "target": "Escherichia coli TOP10",
    "assigned_class": 3
  },
  {
    "seq_string": "RRIRDRPPRLPRPRPRPWTHPRP",
    "target": "Escherichia coli TOP10",
    "assigned_class": 1
  },
  {
    "seq_string": "RRIRYRPPRLPRPRPRPANNPRP",
    "target": "Escherichia coli TOP10",
    "assigned_class": 1
  },
  {
    "seq_string": "RRIRWRPPRLPRPRPRPDRWPRP",
    "target": "Escherichia coli TOP10",
    "assigned_class": 3
  },
  {
    "seq_string": "RRIRNRPPRLPRPRPRPQTHPRP",
    "target": "Escherichia coli TOP10",
    "assigned_class": 1
  },
  {
    "seq_string": "RRIRERPPRLPRPRPRPCAYPRP",
    "target": "Escherichia coli TOP10",
    "assigned_class": 1
  },
  {
    "seq_string": "RRIRDRPPRLPRPRPRPLLMPRP",
    "target": "Escherichia coli TOP10",
    "assigned_class": 3
  },
  {
    "seq_string": "RRIRLRPPRLPRPRPRPWAIPRP",
    "target": "Escherichia coli TOP10",
    "assigned_class": 2
  },
  {
    "seq_string": "RRIRPRPPRLPRPRPRPNPHPRP",
    "target": "Escherichia coli TOP10",
    "assigned_class": 3
  },
  {
    "seq_string": "RRIRWRPPRLPRPRPRPRITPRP",
    "target": "Escherichia coli TOP10",
    "assigned_class": 2
  },
  {
    "seq_string": "RRIRNRPPRLPRPRPRPQLHPRP",
    "target": "Escherichia coli TOP10",
    "assigned_class": 1
  },
  {
    "seq_string": "RRIRYRPPRLPRPRPRPPIRPRP",
    "target": "Escherichia coli TOP10",
    "assigned_class": 2
  },
  {
    "seq_string": "RRIRIRPPRLPRPRPRPKMMPRP",
    "target": "Escherichia coli TOP10",
    "assigned_class": 1
  },
  {
    "seq_string": "RRIRMRPPRLPRPRPRPEMLPRP",
    "target": "Escherichia coli TOP10",
    "assigned_class": 3
  },
  {
    "seq_string": "RRIRHRPPRLPRPRPRPDCEPRP",
    "target": "Escherichia coli TOP10",
    "assigned_class": 2
  },
  {
    "seq_string": "RRIRTRPPRLPRPRPRPAADPRP",
    "target": "Escherichia coli TOP10",
    "assigned_class": 3
  },
  {
    "seq_string": "RRIRQRPPRLPRPRPRPITDPRP",
    "target": "Escherichia coli TOP10",
    "assigned_class": 2
  },
  {
    "seq_string": "RRIRSRPPRLPRPRPRPQDGPRP",
    "target": "Escherichia coli TOP10",
    "assigned_class": 2
  },
  {
    "seq_string": "RRIRRRPPRLPRPRPRPPQGPRP",
    "target": "Escherichia coli TOP10",
    "assigned_class": 3
  },
  {
    "seq_string": "RRIRGRPPRLPRPRPRPFCRPRP",
    "target": "Escherichia coli TOP10",
    "assigned_class": 3
  },
  {
    "seq_string": "RRIRGRPPRLPRPRPRPEWQPRP",
    "target": "Escherichia coli TOP10",
    "assigned_class": 3
  },
  {
    "seq_string": "RRIRGRPPRLPRPRPRPNSKPRP",
    "target": "Escherichia coli TOP10",
    "assigned_class": 3
  },
  {
    "seq_string": "RRIRARPPRLPRPRPRPTFQPRP",
    "target": "Escherichia coli TOP10",
    "assigned_class": 3
  },
  {
    "seq_string": "RRIRVRPPRLPRPRPRPPNKPRP",
    "target": "Escherichia coli TOP10",
    "assigned_class": 2
  },
  {
    "seq_string": "RRIRTRPPRLPRPRPRPLMLPRP",
    "target": "Escherichia coli TOP10",
    "assigned_class": 1
  },
  {
    "seq_string": "RRIRSRPPRLPRPRPRPNYMPRP",
    "target": "Escherichia coli TOP10",
    "assigned_class": 1
  },
  {
    "seq_string": "RRIRNRPPRLPRPRPRPIVPPRP",
    "target": "Escherichia coli TOP10",
    "assigned_class": 1
  },
  {
    "seq_string": "RRIRFRPPRLPRPRPRPMYPPRP",
    "target": "Escherichia coli TOP10",
    "assigned_class": 1
  },
  {
    "seq_string": "RRIRFRPPRLPRPRPRPVTCPRP",
    "target": "Escherichia coli TOP10",
    "assigned_class": 1
  },
  {
    "seq_string": "RRIRCRPPRLPRPRPRPHWVPRP",
    "target": "Escherichia coli TOP10",
    "assigned_class": 2
  },
  {
    "seq_string": "RRIRFRPPRLPRPRPRPYNTPRP",
    "target": "Escherichia coli TOP10",
    "assigned_class": 1
  },
  {
    "seq_string": "RRIRLRPPRLPRPRPRPEIDPRP",
    "target": "Escherichia coli TOP10",
    "assigned_class": 2
  },
  {
    "seq_string": "RRIRDRPPRLPRPRPRPNKTPRP",
    "target": "Escherichia coli TOP10",
    "assigned_class": 2
  },
  {
    "seq_string": "RRIRTRPPRLPRPRPRPMTYPRP",
    "target": "Escherichia coli TOP10",
    "assigned_class": 2
  },
  {
    "seq_string": "RRIRVRPPRLPRPRPRPHQNPRP",
    "target": "Escherichia coli TOP10",
    "assigned_class": 1
  }
]

Where do these numbers come from? They come from the supplement of paper PMC9112550.
